B1: LINE1-full (parent)
chain: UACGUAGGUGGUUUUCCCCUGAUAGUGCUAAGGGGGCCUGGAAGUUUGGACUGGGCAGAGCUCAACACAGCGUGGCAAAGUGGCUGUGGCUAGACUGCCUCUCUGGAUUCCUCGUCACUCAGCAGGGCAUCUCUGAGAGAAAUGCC

variants of: B1; assay: self-cleavage, relative activity (ratio to wild type); higher = more cleavage; in vitro, sequencing; the parent is a self-cleaving ribozyme
We begin with a simple list: items and their reported self-cleavage.
The response must contain the number and no unit.

>>> result_value("UACGUAGGUGGUUUUCCCCUGAUAGUGCUAAGGGGGCCGGGAAGUUUGGACUGGGCAGAGCUCAACACAGCGUAGCAAAGUGGCUGUGGCUAGACUGCCUCUCUGGAUUCCUCGUCACUCAGCAGGGCAUCUCUGAGAGAAAUGCC")
0.97
>>> result_value("UACGUAGGUGGUUUUCCCCUGACAGUGCUAAGGGGGCCUGGAAGUUUGGACUGGGCAGAGCUCAACACAGCUUGGCAAAGUGGCUGUGGCUAGACUGCCUCUCUGGAUUCCUCGUCACUCAGCAGGGCAUCUCUGAGAGAAAUGCC")
0
>>> result_value("UACGUAGGUGGUUUUCCCCUGAUAGUGCUAAGGGGGCCUGGAAGUUUGGACUGGGCAGAGCUCAACACAGCGUGGCAAAGUGGCUGUGGCUAAACUGCCUCUCUGGAUGCCUCGUCACUCAGCAGGGCAUCUCUGAGAGAAAUGCC")
0.06
>>> result_value("UACGUAGGUGGUUUUCCCCUGAUAGUGCUAAAGGGGCCUGGAAGUUUGGACUGGGCAGAGCUCAACACAGCGUGGCAAAGUGGCUGUGGCUAGACUGCCUCUCUGGAUUCCUCGUCACCCAGCAGGGCAUCUCUGAGAGAAAUGCC")
1.29
>>> result_value("UACGUAGGUGGUUUCCCCCUGAUAGUGCUAAGGGGGCCUGGAAGUUUGGACUGGGCAGAGCUCAACACAGCGUGGCAAAGUGGCUGUGGCUAGACUGCCUCUCUGGAUUCCUCGUCACUCAGCAGGGCAUCUCUGCGAGAAAUGCC")
1.99
>>> result_value("UACGUAGGUGGUUUUCCCCUGAUGGUGCUAAGGGGGCCUGGAAGUUUGGACUGGGCAGAGCUCAACACAGCGUGGCAAAGUGGCUGUGGCUAGACGGCCUCUCUGGAUUCCUCGUCACUCAGCAGGGCAUCUCUGAGAGAAAUGCC")
0

Please look at the following variant next.
In: Read the entry UACGUAGGUGGUUUUCCCCUGAUAGUGCUAAGGGGGCCUGGAAGUUUGGACUGGGCAGAGCUCAACACAGCGUGGCAAAGUGGCUGUGGCUAGACUGCCUCUCUGGAUUCCUCGUCACUCUGCAGGGCAUCUCUGAGAGCAAUGCC and write its reported self-cleavage.
Out: 1.09
